Tested on: tHTT
Test: Mutant and total HTT multiplex HTRF assay in Q48 HTT human embryonic stem cell line: tHTT
Type: cell-based
Details: Q48 HTT hESC, 48 hours
# reported tHTT pIC50; entries follow
Number only, no unit.

Some solved entries appear below for comparison.
CN(c1ccc(-c2cc3ncccc3cc2O)nn1)C1CC(C)(C)NC(C)(C)C1; 7.0015
Oc1cc(-c2cn[nH]c2)cc(F)c1-c1nnc(N2C[C@H]3CNC[C@H]3C2)s1; 7.085
CN(c1ccc(-c2ccc(-c3cn[nH]c3)cc2O)nn1)C1CC(C)(C)NC(C)(C)C1; 7.8065
CN(c1nnc(-c2ccc(-c3ccc(=O)n(C)c3)cc2O)s1)C1CC(C)(C)NC(C)(C)C1; 7.493
Cc1ccc2cc(O)c(-c3ccc(N(C)C4CC(C)(C)NC(C)(C)C4)nn3)cc2n1; 7.283

Q) Fill blank: measured tHTT pIC50 of the compound `CN(c1ccc(-c2cc3c(cc2O)C(=O)CC3)nn1)C1CC(C)(C)NC(C)(C)C1` is ____.
A) 6.637

Q) Return reported tHTT pIC50; argument: `CN(c1ccc(-c2ccc(-n3cccn3)cc2O)nn1)C1CC(C)(C)NC(C)(C)C1`
A) 7.178

Q) Give the measured tHTT pIC50 of `CN(c1ccc(-c2ccc(-n3ccc(N)n3)cc2O)nn1)C1CC(C)(C)NC(C)(C)C1` .
A) 7.5845
